- Experimental target: Cholinesterase (Homo sapiens, UniProt P06276)
- Sequence (P06276 whole entry): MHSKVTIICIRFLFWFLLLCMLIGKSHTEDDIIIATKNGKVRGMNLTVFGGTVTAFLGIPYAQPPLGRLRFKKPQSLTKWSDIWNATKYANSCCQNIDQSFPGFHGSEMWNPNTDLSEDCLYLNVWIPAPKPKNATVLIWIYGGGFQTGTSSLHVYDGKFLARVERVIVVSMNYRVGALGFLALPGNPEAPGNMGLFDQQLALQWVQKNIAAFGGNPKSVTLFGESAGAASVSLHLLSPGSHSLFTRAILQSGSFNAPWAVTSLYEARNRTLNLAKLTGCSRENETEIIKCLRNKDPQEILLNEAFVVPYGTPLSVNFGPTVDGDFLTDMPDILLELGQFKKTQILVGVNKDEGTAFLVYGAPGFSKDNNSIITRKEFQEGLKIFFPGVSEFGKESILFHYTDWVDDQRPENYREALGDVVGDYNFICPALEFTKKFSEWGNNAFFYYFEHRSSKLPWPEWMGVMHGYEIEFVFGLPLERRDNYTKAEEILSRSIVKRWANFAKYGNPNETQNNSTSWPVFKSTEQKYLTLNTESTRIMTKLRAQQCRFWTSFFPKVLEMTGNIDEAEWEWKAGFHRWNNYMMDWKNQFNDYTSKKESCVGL
- Experimental protocol: Inhibition of human BChE by Ellman's method
Some compounds, each annotated with its measured pIC50.
Worth noting: pIC50 values are minus log10 of concentrations stated in mol/L.

These recorded examples may help you get a feel for the data.
Cc1cccc(CNC2CCN(Cc3ccccc3)C2)c1 (centres undefined) = 5.53
FC(F)(F)Oc1ccc(CNC2CCN(Cc3ccccc3)C2)cc1 (centres undefined) = 7.09
Fc1ccc(/C=N\C2CCN(Cc3ccccc3)C2)cc1 (centres undefined) = 5.98

From here, focus on the item given below.
Query string: Please respond with reported pIC50 (system Cholinesterase (Homo sapiens, UniProt P06276)) for COc1cc(CNC2CCN(Cc3ccccc3)C2)cc(OC)c1OC (centres undefined) .
Result string: 5.49

* * *

- Experimental protocol: Acute toxicity in po dosed Wistar rat assessed as maximum tolerated dose by OCED guideline method
- Format: organism-based
- Experimental parameters: in vivo
Measured metric: MTD (mg/kg)
Write the value in mg/kg as a bare number.

Query string: Could you please provide reported MTD for FC(F)(F)Oc1ccc(CNC2CCN(Cc3ccccc3)C2)cc1 (configuration not stated) ? Thanks!
Result string: 750

Query string: Could you please provide reported MTD for Fc1ccc(CNC2CCN(Cc3ccccc3)C2)c(F)c1 (configuration not stated) ? Thanks!
Result string: 1750

* * *

- Experimental protocol: AUC (0 to 48 hrs) in Wistar rat at 10 mg/kg, po measured up to 48 hrs
- Type: ADME, organism-based
- Set-up: route oral, dose 10 mg/kg, time <=48
- Experimental parameters: in vivo
Measured metric: AUC(0-t) (ng·h/mL)
Write the value in ng·h/mL as a bare number.

Query string: Could you please provide reported AUC(0-t) for FC(F)(F)Oc1ccc(CNC2CCN(Cc3ccccc3)C2)cc1 (stereo unspecified) ? Thanks!
Result string: 5460

* * *

- Experimental target: Acetylcholinesterase (Homo sapiens, UniProt P22303)
- Sequence (P22303 whole entry): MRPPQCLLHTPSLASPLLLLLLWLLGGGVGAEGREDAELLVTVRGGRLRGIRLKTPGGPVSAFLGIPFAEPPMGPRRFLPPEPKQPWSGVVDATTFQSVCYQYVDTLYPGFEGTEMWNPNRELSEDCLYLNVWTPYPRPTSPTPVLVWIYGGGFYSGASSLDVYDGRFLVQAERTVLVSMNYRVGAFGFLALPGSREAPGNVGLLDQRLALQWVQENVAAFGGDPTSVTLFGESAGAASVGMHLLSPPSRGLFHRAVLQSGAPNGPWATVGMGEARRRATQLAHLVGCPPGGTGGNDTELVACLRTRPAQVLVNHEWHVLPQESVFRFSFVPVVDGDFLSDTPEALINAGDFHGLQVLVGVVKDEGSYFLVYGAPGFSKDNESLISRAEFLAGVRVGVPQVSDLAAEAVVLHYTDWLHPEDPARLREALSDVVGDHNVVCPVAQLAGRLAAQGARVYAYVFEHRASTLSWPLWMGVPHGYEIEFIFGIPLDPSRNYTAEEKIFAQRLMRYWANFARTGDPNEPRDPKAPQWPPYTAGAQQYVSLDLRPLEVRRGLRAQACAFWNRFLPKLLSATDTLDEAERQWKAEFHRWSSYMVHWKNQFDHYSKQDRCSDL
Measured metric: Ki (nM)
Write the value in nM as a bare number.

Query string: Please respond with reported Ki (system Acetylcholinesterase (Homo sapiens, UniProt P22303)) for FC(F)(F)Oc1ccc(CNC2CCN(Cc3ccccc3)C2)cc1 (stereo unspecified) .
Result string: 23

* * *

- Experimental target: Cholinesterase (Homo sapiens)
- Experimental protocol: Inhibition of human BChE by Ellman's method
Measured metric: log10 of IC50 (log10 of the value in µM)
Annotation: log10 of IC50, µM basis.

These recorded examples may help you get a feel for the data.
COc1cccc(CNC2CCN(Cc3ccccc3)C2)c1OC (stereo not given) = 0.74
O=[N+]([O-])c1ccc(/C=N\C2CCN(Cc3ccccc3)C2)cc1 (stereo not given) = 0.37
Cc1ccc(/C=N\C2CCN(Cc3ccccc3)C2)cc1 (stereo not given) = 0.69
FC(F)(F)c1ccc(/C=N\C2CCN(Cc3ccccc3)C2)cc1 (stereo not given) = 0.33
Fc1ccc(/C=N\C2CCN(Cc3ccccc3)C2)c(F)c1 (stereo not given) = 0.14
Brc1ccc(/C=N\C2CCN(Cc3ccccc3)C2)cc1 (stereo not given) = 0.08
FC(F)(F)Oc1ccc(/C=N\C2CCN(Cc3ccccc3)C2)cc1 (stereo not given) = -0.16
Fc1ccc(CNC2CCN(Cc3ccccc3)C2)cc1 (stereo not given) = -0.10
FC(F)(F)c1ccc(CNC2CCN(Cc3ccccc3)C2)cc1 (stereo not given) = -0.01
Oc1ccc(/C=N\C2CCN(Cc3ccccc3)C2)c(O)c1 (stereo not given) = 0.52

Query string: Could you please provide reported log10 of IC50 for Cc1ccc(CNC2CCN(Cc3ccccc3)C2)cc1 (stereo not given) ? Thanks!
Result string: 0.94

Query string: Could you please provide reported log10 of IC50 for Fc1ccc(CNC2CCN(Cc3ccccc3)C2)c(F)c1 (stereo not given) ? Thanks!
Result string: -0.90

Query string: Could you please provide reported log10 of IC50 for COc1cc(/C=N\C2CCN(Cc3ccccc3)C2)cc(OC)c1OC (stereo not given) ? Thanks!
Result string: 0.54
